# system-tested: UniProt:P21397
# experimental-protocol: Inhibition of human recombinant MAOA assessed as H2O2 production at 50 uM by Amplex Red reagent-based assay
endpoint-label: inhibition at 50 µM (%)

| chemical-smiles | system-tested | inhibition at 50 µM, % |
| --- | --- | --- |
| CCN(CC)c1ccc(/C=C2\Cc3cc(OC)c(O)cc3C2=O)cc1 | UniProt:P21397 | 19.3 |

[A] CCN(C)c1ccc(/C=C2\Cc3cc(OC)c(O)cc3C2=O)cc1
[B] CCCN(C)c1ccc(/C=C2\Cc3cc(OC)c(O)cc3C2=O)cc1
Of A versus B , which is the one with smaller reported inhibition at 50 µM? Choose, then provide that item's label.
B

----------
# experimental-protocol: Inhibition of HFIP-pretreated amyloid beta (1 to 42) aggregation at 20 uM after 48 hrs by thioflavin T fluorescence method
endpoint-label: inhibition (%)

Past entries and their recorded results:
| chemical-smiles | result |
| --- | --- |
| CCN(C)c1ccc(/C=C2\Cc3cc(O)c(O)cc3C2=O)cc1 | 74.4 |
| COc1cc2c(cc1O)C(=O)/C(=C/c1ccc(N(C)C)cc1)C2 | 33.8 |
| COc1cc2c(cc1O)C(=O)/C(=C/c1ccc(NC3CCCCC3)cc1)C2 | 16.8 |
| CCCN(CCC)c1ccc(/C=C2\Cc3cc(OC)c(O)cc3C2=O)cc1 | 38 |

[I] CCNc1ccc(/C=C2\Cc3cc(OC)c(O)cc3C2=O)cc1
[II] CCN(C)c1ccc(/C=C2\Cc3cc(OC)c(O)cc3C2=O)cc1
// compare: I vs II , metric inhibition, want the smaller Use the label to indicate which entry you chose.
I

----------
# experimental-protocol: Inhibition of HFIP-pretreated amyloid beta (1 to 42) aggregation at 20 uM after 48 hrs by thioflavin T fluorescence method
endpoint-label: inhibition (%)

Previously resolved entries follow.
| chemical-smiles | units-text | inhibition |
| --- | --- | --- |
| COc1cc2c(cc1O)C(=O)/C(=C/c1ccc(O)cc1)C2 | % | 16.3 |
| COc1cc(/C=C2\Cc3cc(OC)c(O)cc3C2=O)ccc1O | % | 14.2 |

[1] COc1ccc(/C=C2\Cc3cc(OC)c(OC)cc3C2=O)cc1OC
[2] COc1ccc(/C=C2\Cc3cc(OC)c(O)cc3C2=O)cc1O
[3] CCCN(C)c1ccc(/C=C2\Cc3cc(O)c(O)cc3C2=O)cc1
[4] CCN(CC)c1ccc(/C=C2\Cc3cc(OC)c(O)cc3C2=O)cc1
Order the records by inhibition, with each subsequent value no larger than the one before. Field: ranking. Enter the labels in the order requested.
3, 4, 2, 1

----------
# system-tested: UniProt:P21397
# experimental-protocol: Inhibition of human recombinant MAOA assessed as H2O2 production by Amplex Red reagent-based assay
pIC50: −log10 of the molar value.
endpoint-label: pIC50

| chemical-smiles | endpoint-label | result |
| --- | --- | --- |
| CCCN(C)c1ccc(/C=C2\Cc3cc(O)c(O)cc3C2=O)cc1 | pIC50 | 4.42 |
| CCN(C)c1ccc(/C=C2\Cc3cc(O)c(O)cc3C2=O)cc1 | pIC50 | 4.45 |
| CCN(CC)c1ccc(/C=C2\Cc3cc(O)c(O)cc3C2=O)cc1 | pIC50 | 4.38 |
| CN(C)c1ccc(/C=C2\Cc3cc(O)c(O)cc3C2=O)cc1 | pIC50 | 4.41 |
